- assay system: PfCRT^Ecu1110 (Plasmodium falciparum, UniProt Q9N623, A220S/I356L/K76T/N326D)
- procedure summary: cell-based
- Format: cell-based
- stated conditions: trans-stimulation; [test solute]i = 5 mM (injected); PfCRT-mediated component (background subtracted), sheet title says normalised to PfCRTDd2 control; mean ± SEM; SEM
- Protocol: Unless specified otherwise, the transport assays were conducted over 1.5 h at 27.5 °C and the reaction buffer was ND96 (96 mM NaCl, 2 mM KCl, 1 mM MgCl2, 1.8 mM CaCl2, 10 mM MES and 10 mM Tris-base) at pH 5.5. The intracellular concentrations were calculated using previous estimates of the volume of stage V–VI oocytes (~400 nL[60]). […] The oocytes were injected with VF-6 suspended in 25 nL ND96 buffer adjusted to pH 5.0, 5.5, 6.0 or 7.0, which corresponded to the injection of 2.5–250 fmol of H^+. […]
recorded metric: [3H]CQ transport (% PfCRTDd2 control), trans-stimulation, PfCRTEcu1110 (% PfCRTEcu1110 control)

[[record]]
substance = "DLDDALDK [DK-8]"
assay_system = "PfCRT^Ecu1110 (Plasmodium falciparum, UniProt Q9N623, A220S/I356L/K76T/N326D)"
readout_units = "% PfCRTEcu1110 control"
assay_value = 29

[[record]]
substance = "DPENFR [DR-6]"
assay_system = "PfCRT^Ecu1110 (Plasmodium falciparum, UniProt Q9N623, A220S/I356L/K76T/N326D)"
readout_units = "% PfCRTEcu1110 control"
assay_value = 36

[[record]]
substance = "EFTPPVQ [EQ-7]"
assay_system = "PfCRT^Ecu1110 (Plasmodium falciparum, UniProt Q9N623, A220S/I356L/K76T/N326D)"
readout_units = "% PfCRTEcu1110 control"
assay_value = 39

[[record]]
substance = "AEALERMF [AF-8]"
assay_system = "PfCRT^Ecu1110 (Plasmodium falciparum, UniProt Q9N623, A220S/I356L/K76T/N326D)"
readout_units = "% PfCRTEcu1110 control"
assay_value = 29

[[record]]
substance = "PHFDLS [PS-6]"
assay_system = "PfCRT^Ecu1110 (Plasmodium falciparum, UniProt Q9N623, A220S/I356L/K76T/N326D)"
readout_units = "% PfCRTEcu1110 control"
assay_value = 37

[[record]]
substance = "FPHFDLS [FS-7]"
assay_system = "PfCRT^Ecu1110 (Plasmodium falciparum, UniProt Q9N623, A220S/I356L/K76T/N326D)"
readout_units = "% PfCRTEcu1110 control"
assay_value = 30

[[record]]
substance = "VDPVNFK [VK-7]"
assay_system = "PfCRT^Ecu1110 (Plasmodium falciparum, UniProt Q9N623, A220S/I356L/K76T/N326D)"
readout_units = "% PfCRTEcu1110 control"
assay_value = 40

[[record]]
substance = "HVDDMPN [HN-7]"
assay_system = "PfCRT^Ecu1110 (Plasmodium falciparum, UniProt Q9N623, A220S/I356L/K76T/N326D)"
readout_units = "% PfCRTEcu1110 control"
assay_value = 40

[[record]]
substance = "HVDPENF [HF-7]"
assay_system = "PfCRT^Ecu1110 (Plasmodium falciparum, UniProt Q9N623, A220S/I356L/K76T/N326D)"
readout_units = "% PfCRTEcu1110 control"
assay_value = 40

[[record]]
substance = "HVDPEN [HN-6]"
assay_system = "PfCRT^Ecu1110 (Plasmodium falciparum, UniProt Q9N623, A220S/I356L/K76T/N326D)"
readout_units = "% PfCRTEcu1110 control"
assay_value = 35


###

- assay system: PfCRT^Ecu1110 (Plasmodium falciparum, UniProt Q9N623, A220S/I356L/K76T/N326D)
- procedure summary: cell-based
- Format: cell-based
- stated conditions: trans-stimulation; [test solute]i = 45 mM (30 mM for some solutes due to solubility); PfCRT-mediated component (background subtracted), sheet title says normalised to PfCRTDd2 control; mean ± SEM; SEM
recorded metric: [3H]CQ transport (% PfCRTDd2 control), trans-stimulation, PfCRTEcu1110 (% PfCRTEcu1110 control)

[[record]]
substance = "LSFPTTK [LK-7]"
readout_units = "% PfCRTEcu1110 control"
assay_value = 29

[[record]]
substance = "HVDPEN [HN-6]"
readout_units = "% PfCRTEcu1110 control"
assay_value = 41

[[record]]
substance = "DPENFR [DR-6]"
readout_units = "% PfCRTEcu1110 control"
assay_value = 38

[[record]]
substance = "HAGEYG [HG-6]"
readout_units = "% PfCRTEcu1110 control"
assay_value = 29

[[record]]
substance = "VLSPAD [VD-6]"
readout_units = "% PfCRTEcu1110 control"
assay_value = 30

[[record]]
substance = "AEALERMF [AF-8]"
readout_units = "% PfCRTEcu1110 control"
assay_value = 30

[[record]]
substance = "VDEVGG [VG-6]"
readout_units = "% PfCRTEcu1110 control"
assay_value = 42

[[record]]
substance = "FSDGLA [FA-6]"
readout_units = "% PfCRTEcu1110 control"
assay_value = 29

[[record]]
substance = "DMPNALS [DS-7, host-derived peptide upstream of PL-4]"
readout_units = "% PfCRTEcu1110 control"
assay_value = 41

[[record]]
substance = "VDPVNFK [VK-7]"
readout_units = "% PfCRTEcu1110 control"
assay_value = 42

[[record]]
substance = "HVDPENF [HF-7]"
readout_units = "% PfCRTEcu1110 control"
assay_value = 42

[[record]]
substance = "HVDDMP [HP-6]"
readout_units = "% PfCRTEcu1110 control"
assay_value = 42

[[record]]
substance = "SHCLLVT [ST-7]"
readout_units = "% PfCRTEcu1110 control"
assay_value = 41

[[record]]
substance = "FPHFDLS [FS-7]"
readout_units = "% PfCRTEcu1110 control"
assay_value = 30

[[record]]
substance = "DLDDALDK [DK-8]"
readout_units = "% PfCRTEcu1110 control"
assay_value = 29

[[record]]
substance = "EFTPPVQ [EQ-7]"
readout_units = "% PfCRTEcu1110 control"
assay_value = 41

[[record]]
substance = "PHFDLS [PS-6]"
readout_units = "% PfCRTEcu1110 control"
assay_value = 43

[[record]]
substance = "HVDDMPN [HN-7]"
readout_units = "% PfCRTEcu1110 control"
assay_value = 42


###

- assay system: PfCRT^Ecu1110 (Plasmodium falciparum, UniProt Q9N623, A220S/I356L/K76T/N326D)
- procedure summary: [3H]CQ uptake into Xenopus oocytes, cis-inhibition by unlabelled solute
- Type: cell-based
- stated conditions: read-out: [3H]CQ transport (% PfCRTEcu1110 control), cis-inhibition, PfCRTEcu1110; SEM
recorded metric: inhibition at 500 µM (%)

[[record]]
given_smiles = "C[C@@H](O)[C@H](N)C(=O)O"
assay_value = 28

[[record]]
given_smiles = "N[C@@H](CO)C(=O)O"
assay_value = 29

[[record]]
given_smiles = "NC(=O)CC[C@H](N)C(=O)O"
assay_value = 29

[[record]]
given_smiles = "O=C(O)[C@@H]1CCCN1"
assay_value = 30

[[record]]
given_smiles = "NCCCC[C@H](N)C(=O)O"
assay_value = 28


###

Entries annotated with measured inhibition at 500 µM
- assay system: PfCRT^Dd2 (Plasmodium falciparum, UniProt Q9N623, A220S/I356T/K76T/M74I/N326S/N75E/Q271E/R371I)
- Sequence (Q9N623 whole entry A220S/I356T/K76T/M74I/N326S/N75E/Q271E/R371I): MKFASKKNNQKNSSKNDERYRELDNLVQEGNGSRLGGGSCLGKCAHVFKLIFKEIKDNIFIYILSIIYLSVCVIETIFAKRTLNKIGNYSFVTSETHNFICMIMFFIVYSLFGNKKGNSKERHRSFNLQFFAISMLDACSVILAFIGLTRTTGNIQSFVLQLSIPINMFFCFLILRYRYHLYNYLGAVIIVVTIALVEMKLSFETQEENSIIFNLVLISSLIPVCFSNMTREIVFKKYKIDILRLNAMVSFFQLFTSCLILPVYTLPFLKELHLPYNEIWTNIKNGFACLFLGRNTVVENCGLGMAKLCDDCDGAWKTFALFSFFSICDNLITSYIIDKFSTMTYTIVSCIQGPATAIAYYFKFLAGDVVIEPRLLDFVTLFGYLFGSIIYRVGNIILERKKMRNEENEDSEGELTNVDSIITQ
- procedure summary: [3H]CQ uptake into Xenopus oocytes, cis-inhibition by unlabelled solute
- Type: cell-based
- stated conditions: read-out: Uptake of [3H]CQ (% PfCRTDd2 control), cis-inhibition
recorded metric: inhibition at 500 µM (%)

[[record]]
given_smiles = "N=C(N)NCCC[C@H](N)C(=O)O"
assay_value = 101

[[record]]
given_smiles = "CC(C)C[C@H](N)C(=O)O"
assay_value = 100

[[record]]
given_smiles = "N[C@@H](CS)C(=O)O"
assay_value = 97

[[record]]
given_smiles = "CC(C)[C@H](N)C(=O)O"
assay_value = 100

[[record]]
given_smiles = "NC(=O)CC[C@H](N)C(=O)O"
assay_value = 100


###

- assay system: PfNT1 (Plasmodium falciparum)
- Construct: expressed in transfected cells; host or cells: Xenopus laevis oocytes (stage V-VI), cRNA-injected
- Sequence (Q8IDM6 whole entry): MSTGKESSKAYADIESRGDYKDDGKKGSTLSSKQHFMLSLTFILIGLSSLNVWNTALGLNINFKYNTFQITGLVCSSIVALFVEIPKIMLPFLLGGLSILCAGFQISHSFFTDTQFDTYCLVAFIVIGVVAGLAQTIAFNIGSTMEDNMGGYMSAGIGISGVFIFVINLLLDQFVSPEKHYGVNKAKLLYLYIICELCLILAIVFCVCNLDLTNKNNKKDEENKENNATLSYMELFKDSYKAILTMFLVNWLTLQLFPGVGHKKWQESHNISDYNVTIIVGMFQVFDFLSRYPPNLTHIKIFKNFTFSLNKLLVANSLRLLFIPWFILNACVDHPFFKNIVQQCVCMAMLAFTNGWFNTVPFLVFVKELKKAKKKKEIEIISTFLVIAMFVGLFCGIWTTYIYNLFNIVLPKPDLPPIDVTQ
- procedure summary: cell-based
- Type: cell-based
- stated conditions: […]; read-out: Uptake of [3H]CQ (% PfNT1 control), trans-stimulation
Let's look at some molecules and their measured activity at 45000 µM.
recorded metric: activity at 45000 µM (%)

[[record]]
given_smiles = "CC(C)[C@H](N)C(=O)O"
assay_value = 100

[[record]]
given_smiles = "NCCCC[C@H](N)C(=O)O"
assay_value = 99

[[record]]
given_smiles = "N[C@@H](CS)C(=O)O"
assay_value = 99

[[record]]
given_smiles = "CC[C@H](C)[C@H](N)C(=O)O"
assay_value = 100

[[record]]
given_smiles = "N[C@@H](Cc1c[nH]c2ccccc12)C(=O)O"
assay_value = 98

[[record]]
given_smiles = "N[C@@H](Cc1c[nH]cn1)C(=O)O"
assay_value = 99

